src = patent US20100260765A1

target: T1, human KDR (VEGFR2) on cells (human, UniProt P35968 20-1356); experiment: FACS on HUVEC, hybridoma supernatant 1:50
T1 construct: whole, on cells; also called native KDR on HUVEC; endogenously expressed KDR
T1 sequence (P35968 20-1356): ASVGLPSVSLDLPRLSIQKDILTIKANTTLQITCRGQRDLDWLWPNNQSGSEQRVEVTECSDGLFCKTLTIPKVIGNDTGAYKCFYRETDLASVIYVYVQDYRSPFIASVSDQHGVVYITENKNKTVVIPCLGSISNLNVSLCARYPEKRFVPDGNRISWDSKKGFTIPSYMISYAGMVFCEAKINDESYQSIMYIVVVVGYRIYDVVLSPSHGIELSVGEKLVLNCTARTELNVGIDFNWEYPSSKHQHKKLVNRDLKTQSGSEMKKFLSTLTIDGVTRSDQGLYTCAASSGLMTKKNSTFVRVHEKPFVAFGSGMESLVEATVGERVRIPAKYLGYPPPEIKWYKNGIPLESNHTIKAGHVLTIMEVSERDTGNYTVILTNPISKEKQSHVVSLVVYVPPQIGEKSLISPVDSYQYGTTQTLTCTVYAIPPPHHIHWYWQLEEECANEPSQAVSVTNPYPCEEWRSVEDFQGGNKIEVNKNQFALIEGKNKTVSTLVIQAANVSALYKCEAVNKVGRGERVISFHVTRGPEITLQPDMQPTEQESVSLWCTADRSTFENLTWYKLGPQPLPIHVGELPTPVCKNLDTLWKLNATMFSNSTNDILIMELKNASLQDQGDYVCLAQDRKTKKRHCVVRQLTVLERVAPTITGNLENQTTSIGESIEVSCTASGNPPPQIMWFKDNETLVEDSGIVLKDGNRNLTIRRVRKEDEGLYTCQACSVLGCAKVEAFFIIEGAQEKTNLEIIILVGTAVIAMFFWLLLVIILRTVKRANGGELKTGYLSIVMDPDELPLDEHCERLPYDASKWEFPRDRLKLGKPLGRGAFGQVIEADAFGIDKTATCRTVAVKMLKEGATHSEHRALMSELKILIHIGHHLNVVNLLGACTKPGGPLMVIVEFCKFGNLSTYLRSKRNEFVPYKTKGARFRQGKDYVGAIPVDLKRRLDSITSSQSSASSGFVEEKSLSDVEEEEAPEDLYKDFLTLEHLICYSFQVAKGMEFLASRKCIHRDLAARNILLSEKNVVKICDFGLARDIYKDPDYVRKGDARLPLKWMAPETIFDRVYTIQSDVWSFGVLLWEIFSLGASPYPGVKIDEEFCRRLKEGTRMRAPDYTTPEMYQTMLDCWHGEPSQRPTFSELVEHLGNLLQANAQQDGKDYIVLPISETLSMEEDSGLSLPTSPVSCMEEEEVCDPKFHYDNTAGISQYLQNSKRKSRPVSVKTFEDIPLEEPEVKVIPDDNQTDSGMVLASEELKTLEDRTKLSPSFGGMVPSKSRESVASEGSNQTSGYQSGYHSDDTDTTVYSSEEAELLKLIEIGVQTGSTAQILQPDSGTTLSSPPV
# FACS Geometric Mean values compiled below

| binder | FACS Geometric Mean |
| --- | --- |
| anti-KDR monoclonal antibody 32F4 (antibody, V domains shown, Fully human mAb from XenoMouse (IgG2 or IgG4 strain); hybridoma supernatant) VH: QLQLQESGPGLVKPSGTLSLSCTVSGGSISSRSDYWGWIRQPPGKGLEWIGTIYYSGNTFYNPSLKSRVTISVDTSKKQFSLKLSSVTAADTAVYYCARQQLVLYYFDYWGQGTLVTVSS VL: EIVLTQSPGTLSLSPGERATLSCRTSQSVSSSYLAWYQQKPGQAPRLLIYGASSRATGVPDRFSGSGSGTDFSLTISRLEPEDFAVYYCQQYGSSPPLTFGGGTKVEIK | 27 |
| anti-KDR monoclonal antibody 32G7 (antibody, V domains shown, Fully human mAb from XenoMouse (IgG2 or IgG4 strain); hybridoma supernatant) VH: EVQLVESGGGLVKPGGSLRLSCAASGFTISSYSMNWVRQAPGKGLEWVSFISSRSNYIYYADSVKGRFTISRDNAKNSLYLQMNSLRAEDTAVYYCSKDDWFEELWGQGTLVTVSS VL: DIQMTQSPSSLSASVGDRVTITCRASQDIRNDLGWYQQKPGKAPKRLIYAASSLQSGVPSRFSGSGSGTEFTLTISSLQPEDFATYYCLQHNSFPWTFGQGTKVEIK | 28 |
| anti-KDR monoclonal antibody 21A1 (antibody, V domains shown, Fully human mAb from XenoMouse (IgG2 or IgG4 strain); hybridoma supernatant) VH: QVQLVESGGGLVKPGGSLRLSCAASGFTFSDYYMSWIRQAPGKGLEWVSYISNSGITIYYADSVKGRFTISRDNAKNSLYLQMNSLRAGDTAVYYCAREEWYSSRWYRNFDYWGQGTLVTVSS VL: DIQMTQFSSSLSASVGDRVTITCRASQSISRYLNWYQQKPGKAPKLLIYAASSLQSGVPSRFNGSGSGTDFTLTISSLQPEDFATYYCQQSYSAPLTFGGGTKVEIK | 14 |
